system: SF-539 CNS; assay: NCI tumour cell line growth inhibition, 48 h
Item-by-item account of TGI
reported.property: TGI

compound: N.N.NC(CS)C(=O)[O-].NC(CS)C(=O)[O-].[Pt+4] (stereo not given)
test.system: SF-539 CNS
reported.measurement: > 50 µM
//
compound: COC(=O)c1c(C(=O)OC)c2cc(C(=O)c3ccccc3)ccn2c1Cl
test.system: SF-539 CNS
reported.measurement: > 100 µM
//
compound: COC(=O)C(Nc1ccc(OC)cc1)c1ccccc1 (stereo not given)
test.system: SF-539 CNS
reported.measurement: > 100 µM
//
compound: CSc1cc(Cl)c(C)cc1S(=O)(=O)NC(=O)NNc1ccc(F)c(Cl)c1
test.system: SF-539 CNS
reported.measurement: > 100 µM
//
compound: COc1c(O)ccc2c1CN1CCc3cc4c(cc3C1C2)OCO4 (stereo not given)
test.system: SF-539 CNS
reported.measurement: > 100 µM
//
compound: O=C(Cc1ccccc1)c1ccc2[nH]c(=O)oc2c1
test.system: SF-539 CNS
reported.measurement: > 100 µM
//
compound: CCCNC(=S)/N=C\c1c(O)c2ccccc2oc1=O
test.system: SF-539 CNS
reported.measurement: > 100 µM
//
compound: CCC1(N=[N+]=[N-])C(=O)Nc2cc(C)ccc2C1=O (stereo not given)
test.system: SF-539 CNS
reported.measurement: > 100 µM
//
compound: N=C(N)CCCCCCCCC(=N)N
test.system: SF-539 CNS
reported.measurement: > 100 µM
//
compound: CC(C)CCC[C@@H](C)C1CCC2[C@@H]3CCC4CC(CCC=C(c5cc(Cl)c(OC(=O)c6ccccc6)c(C(=O)O)c5)c5cc(Cl)c(OC(=O)c6ccccc6)c(C(=O)O)c5)CC[C@]4(C)C3CC[C@@]21C (stereo not given in full)
test.system: SF-539 CNS
reported.measurement: > 100 µM
//
compound: CCOC(=O)c1c(NC(=O)Nc2ccccc2)c(C(N)=O)c2n1CCCCC2
test.system: SF-539 CNS
reported.measurement: > 100 µM
//
compound: O=c1c2cccnc2nc2ccc3c[nH][nH]c3c12
test.system: SF-539 CNS
reported.measurement: > 10 µM
//
compound: O=C1/C(=C\c2ccc(-c3ccc(Cl)cc3Cl)o2)SC2N=C(COc3ccc(Cl)cc3)NN12 (stereo not given)
test.system: SF-539 CNS
reported.measurement: > 100 µM
//
compound: COC[n+]1cc2cc(OC)c(OC)cc2c2ccc3cc(OC)c(OC)cc3c21
test.system: SF-539 CNS
reported.measurement: > 100 µM
//
compound: O=C1C(=O)c2ccccc2C(O)=C1C(CCc1ccccc1)C1=C(O)c2ccccc2C(=O)C1=O
test.system: SF-539 CNS
reported.measurement: > 100 µM
//
compound: COc1ccc(-c2nc(-c3ccccc3)c(-c3ccccc3)n2C2CC2)cc1OC1CCCC1
test.system: SF-539 CNS
reported.measurement: > 165 µM
//
compound: COc1ccc(-c2nc(-c3cn(C)c4ncccc34)cs2)cc1
test.system: SF-539 CNS
reported.measurement: > 100 µM
//
compound: CC1=NN(C(=O)Cc2ccccc2)C(=O)/C1=C\C=C\c1ccccc1
test.system: SF-539 CNS
reported.measurement: > 100 µM
//
compound: CC(=O)N1c2ccccc2Sc2cc(C(O)(C(F)(F)F)C(F)(F)F)ccc21
test.system: SF-539 CNS
reported.measurement: > 10 µM
//
compound: CC(C)(C)[C@H]1CO[C@]2(C)[C@@H]3C[C@@H]3C(=O)N12
test.system: SF-539 CNS
reported.measurement: > 100 µM
